- assayed.system: HIC
- assay.method.text: competition for 3H-histamine binding to HIC in brain membranes
- details: rat cortical membranes
measurement.kind: Ki

>>> experimental_result("CCN(CC)CCOc1ccc(C(=O)c2ccc(F)cc2)cc1")
"300 nM"

Query: Return the recorded Ki value; entry: CCN(CC)CCOc1ccc(Cc2ccccc2)cc1
Result: 900 nM
